Overview of recorded AUC(0-inf) for various compounds
test: Pharmacokinetic studies in rats (plasma, brain, CSF); format: in vivo; conditions: male, Sprague Dawley, rat; CSF, oral, rats, normalized to 25 mg/kg; read-out: Exposure/trapezoid AUC0-inf
A bare number is not enough; add the unit after it.

O=C(Nc1ccc2c(c1)B(O)OC2)c1ccc(F)cc1C(F)(F)F; 3.9 µg·h/mL

Reported AUC(0-inf) for `CC1(C)OB(O)c2cc(NC(=O)c3ccc(F)cc3C(F)(F)F)ccc21` : what is it?
16.8 µg·h/mL

----------
Overview of recorded half-life for various molecules
experiment: Pharmacokinetic studies in rats (plasma, brain, CSF); type: in vivo; details: male, Sprague Dawley, rat, 25 mg/kg; CSF, oral, rats; read-out: t½ (converted)
Numeric answer only, unit h assumed.

Reported half-life for `O=C(Nc1ccc2c(c1)B(O)OC2)c1ccc(F)cc1C(F)(F)F` : what is it?
3.1

Reported half-life for `CC1(C)OB(O)c2cc(NC(=O)c3ccc(F)cc3C(F)(F)F)ccc21` : what is it?
8.7
